Reported values of AC50 for individual entries
- target.or.system: Prostaglandin G/H synthase 1 (Rattus norvegicus, UniProt Q63921); note: assay procedure not described here
- Sequence (Q63921 whole entry): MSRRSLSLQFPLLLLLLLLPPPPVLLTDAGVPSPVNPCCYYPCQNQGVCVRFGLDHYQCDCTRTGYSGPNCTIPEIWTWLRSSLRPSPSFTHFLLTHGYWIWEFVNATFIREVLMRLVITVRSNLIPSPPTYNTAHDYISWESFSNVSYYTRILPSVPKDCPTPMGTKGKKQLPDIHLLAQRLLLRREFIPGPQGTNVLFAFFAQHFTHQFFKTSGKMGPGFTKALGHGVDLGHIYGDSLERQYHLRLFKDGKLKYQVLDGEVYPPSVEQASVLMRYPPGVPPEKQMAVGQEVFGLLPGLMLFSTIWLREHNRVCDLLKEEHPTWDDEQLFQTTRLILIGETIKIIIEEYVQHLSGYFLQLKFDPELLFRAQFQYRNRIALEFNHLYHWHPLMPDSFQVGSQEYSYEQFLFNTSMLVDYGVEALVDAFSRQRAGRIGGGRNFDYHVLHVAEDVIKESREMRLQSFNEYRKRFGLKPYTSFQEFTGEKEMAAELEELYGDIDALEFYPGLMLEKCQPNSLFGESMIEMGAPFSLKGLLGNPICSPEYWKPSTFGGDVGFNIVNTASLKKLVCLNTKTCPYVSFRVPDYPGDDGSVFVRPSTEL
- Format: functional

Observe how each entry below is paired with its result.
CCc1cc2c(s1)-n1c(C)nnc1CN=C2c1ccccc1Cl : > 30 µM
COc1cc(C)c(/C=C/C(C)=C/C=C/C(C)=C/C(=O)O)c(C)c1C : 0.517 µM
CCC(=O)O[C@](Cc1ccccc1)(c1ccccc1)[C@H](C)CN(C)C : > 30 µM

Prompt: What measured AC50 goes with CN[C@@H](C)[C@@H](O)c1ccccc1 ?
Completion: > 30 µM

Prompt: Another: O=C1Cc2cc(CCN3CCN(c4nsc5ccccc45)CC3)c(Cl)cc2N1
Completion: > 30 µM

Prompt: Another: COc1cc(C(C)=O)ccc1OCCCN1CCC(c2noc3cc(F)ccc23)CC1
Completion: > 30 µM

Prompt: Another: C[N+]1(C)CCC(=C(c2ccccc2)c2ccccc2)CC1
Completion: > 10 µM

Prompt: Another: C[C@@H]1C[C@H]2[C@@H]3CCC4=CC(=O)C=C[C@]4(C)[C@@]3(F)[C@@H](O)C[C@]2(C)[C@@]1(O)C(=O)CO
Completion: > 30 µM

Prompt: Another: CN1CCN=C(c2ccccc2)c2cc(Cl)ccc21
Completion: 16 µM

* * *

- target.or.system: Histamine H2 receptor (Homo sapiens); note: assay procedure not described here
- Sequence (P25021 whole entry): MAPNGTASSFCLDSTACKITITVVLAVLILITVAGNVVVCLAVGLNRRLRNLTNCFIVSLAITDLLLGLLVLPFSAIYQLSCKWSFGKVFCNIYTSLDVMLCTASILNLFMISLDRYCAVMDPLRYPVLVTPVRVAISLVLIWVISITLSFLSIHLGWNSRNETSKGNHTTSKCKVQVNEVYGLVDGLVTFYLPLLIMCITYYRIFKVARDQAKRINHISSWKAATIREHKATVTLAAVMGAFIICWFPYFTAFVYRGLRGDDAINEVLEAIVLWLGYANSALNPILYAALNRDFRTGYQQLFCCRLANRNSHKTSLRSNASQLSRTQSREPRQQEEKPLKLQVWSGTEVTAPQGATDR
- Format: functional, cell-based
Reported values of AC50 for individual entries

Observe how each entry below is paired with its result.
CCCN1CCCC[C@H]1C(=O)Nc1c(C)cccc1C : > 30 µM
Cc1nc(Nc2ncc(C(=O)Nc3c(C)cccc3Cl)s2)cc(N2CCN(CCO)CC2)n1 : > 30 µM
CC[C@@H](CO)NC(=O)[C@@H]1C=C2c3cccc4c3c(cn4C)C[C@H]2N(C)C1 [METHYSERGIDE] : 2.78 µM
CCCNC(=O)NS(=O)(=O)c1ccc(Cl)cc1 [CHLORPROPAMIDE] : > 10 µM
CCCCOc1ccc(C(=O)CCN2CCCCC2)cc1 : > 10 µM

Prompt: What measured AC50 goes with NC[C@H]1CC[C@H](C(=O)Oc2ccc(CCC(=O)O)cc2)CC1 [CETRAXATE] ?
Completion: > 30 µM

Prompt: Another: CN(C)C/C=C/C(=O)Nc1cc2c(Nc3ccc(F)c(Cl)c3)ncnc2cc1O[C@H]1CCOC1
Completion: > 30 µM

Prompt: Another: CCOC(=O)c1c(CSc2ccccc2)n(C)c2cc(Br)c(O)c(CN(C)C)c12
Completion: > 30 µM

* * *

- target.or.system: 3',5'-cyclic-AMP phosphodiesterase 4A (Homo sapiens); note: assay procedure not described here
- Sequence (P27815 whole entry): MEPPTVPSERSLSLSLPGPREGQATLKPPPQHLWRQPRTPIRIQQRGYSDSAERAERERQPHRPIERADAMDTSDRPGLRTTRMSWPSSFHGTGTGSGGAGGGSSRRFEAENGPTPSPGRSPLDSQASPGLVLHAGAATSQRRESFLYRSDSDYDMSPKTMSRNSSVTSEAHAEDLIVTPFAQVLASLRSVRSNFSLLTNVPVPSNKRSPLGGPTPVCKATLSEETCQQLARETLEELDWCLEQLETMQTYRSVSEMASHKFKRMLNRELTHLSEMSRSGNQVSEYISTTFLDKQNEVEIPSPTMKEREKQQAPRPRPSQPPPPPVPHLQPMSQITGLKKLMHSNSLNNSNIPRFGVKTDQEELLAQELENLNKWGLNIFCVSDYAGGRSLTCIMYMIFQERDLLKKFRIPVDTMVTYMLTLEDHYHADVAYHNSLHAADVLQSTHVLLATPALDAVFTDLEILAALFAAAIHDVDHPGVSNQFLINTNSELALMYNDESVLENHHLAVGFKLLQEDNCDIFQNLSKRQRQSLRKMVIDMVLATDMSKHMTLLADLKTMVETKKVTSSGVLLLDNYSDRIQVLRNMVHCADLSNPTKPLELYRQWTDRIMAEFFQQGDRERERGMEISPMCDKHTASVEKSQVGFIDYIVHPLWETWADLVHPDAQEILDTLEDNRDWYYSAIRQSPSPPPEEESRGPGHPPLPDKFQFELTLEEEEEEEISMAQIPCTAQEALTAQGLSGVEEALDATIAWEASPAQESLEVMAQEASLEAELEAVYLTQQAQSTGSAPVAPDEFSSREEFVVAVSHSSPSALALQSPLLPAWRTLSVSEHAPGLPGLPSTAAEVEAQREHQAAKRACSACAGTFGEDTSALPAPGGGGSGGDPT
- Format: functional
reported.metric: AC50

CC[C@@H]1C[C@]1(NC(=O)[C@@H]1C[C@@H]2CN1C(=O)[C@H](C(C)(C)C)NC(=O)OCC(C)(C)CCCCc1cccc3c1CN(C3)C(=O)O2)C(=O)NS(=O)(=O)C1CC1 : > 30 µM

Prompt: Record lookup: for 3',5'-cyclic-AMP phosphodiesterase 4A (Homo sapiens), what AC50 belongs to C[Se]CC[C@H](N)C(=O)O ?
Completion: > 30 µM

Prompt: Another: N[C@@H](Cc1ccccc1)C(=O)O
Completion: > 30 µM

Prompt: Another: C=C(C)CNc1ccc(C(C)C(=O)O)cc1 (stereo not drawn)
Completion: > 30 µM

Prompt: Another: CC1(C)O[C@@H]2C[C@H]3[C@@H]4C[C@H](F)C5=CC(=O)C=C[C@]5(C)[C@@]4(F)[C@@H](O)C[C@]3(C)[C@]2(C(=O)CO)O1 [FLUOCINOLONE ACETONIDE]
Completion: > 30 µM

Prompt: Another: CC(=O)OC[C@H]1O[C@@H](n2ncc(=O)[nH]c2=O)[C@H](OC(C)=O)[C@@H]1OC(C)=O
Completion: > 30 µM

Prompt: Another: Cc1ccc(C)c(OCCCC(C)(C)C(=O)O)c1
Completion: > 30 µM

Prompt: Another: O=S1(=O)CCN(CN2CCS(=O)(=O)NC2)CN1
Completion: > 30 µM

* * *

- target.or.system: Amine oxidase [flavin-containing] A (Homo sapiens, UniProt P21397); note: assay procedure not described here
- Sequence (P21397 whole entry): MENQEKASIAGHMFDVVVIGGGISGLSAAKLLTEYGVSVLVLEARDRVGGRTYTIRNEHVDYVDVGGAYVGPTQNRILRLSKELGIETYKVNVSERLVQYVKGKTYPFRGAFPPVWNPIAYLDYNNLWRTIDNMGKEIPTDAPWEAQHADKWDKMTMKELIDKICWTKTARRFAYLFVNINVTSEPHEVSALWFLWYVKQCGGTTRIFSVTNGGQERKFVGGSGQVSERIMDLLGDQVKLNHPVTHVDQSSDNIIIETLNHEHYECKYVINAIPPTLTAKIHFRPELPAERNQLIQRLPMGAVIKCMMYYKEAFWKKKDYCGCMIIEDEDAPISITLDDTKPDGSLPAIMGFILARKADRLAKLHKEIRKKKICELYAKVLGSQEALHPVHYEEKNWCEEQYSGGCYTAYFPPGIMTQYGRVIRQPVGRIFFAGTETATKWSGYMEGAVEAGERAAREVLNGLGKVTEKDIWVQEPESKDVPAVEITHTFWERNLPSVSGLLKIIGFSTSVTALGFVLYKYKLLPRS
- Assay type: functional
Reported values of AC50 for individual entries

C[C@@H]1C[C@H]2[C@@H]3CCC4=CC(=O)C=C[C@]4(C)[C@@]3(F)[C@@H](O)C[C@]2(C)[C@@]1(O)C(=O)CO : > 30 µM
C[C@]12C/C(=C/O)C(=O)C[C@@H]1CC[C@@H]1[C@@H]2CC[C@@]2(C)[C@H]1CC[C@]2(C)O : > 30 µM
CN(C)C/C=C/C(=O)Nc1cc2c(Nc3ccc(F)c(Cl)c3)ncnc2cc1O[C@H]1CCOC1 : > 30 µM

Turning now to a further record.
Prompt: Record lookup: for Amine oxidase [flavin-containing] A (Homo sapiens, UniProt P21397), what AC50 belongs to O=C(O)Cc1ccccc1Nc1c(Cl)cccc1Cl ?
Completion: > 10 µM

* * *

- target.or.system: Adenosine receptor A3 (Homo sapiens); note: assay procedure not described here
- Sequence (P0DMS8 whole entry): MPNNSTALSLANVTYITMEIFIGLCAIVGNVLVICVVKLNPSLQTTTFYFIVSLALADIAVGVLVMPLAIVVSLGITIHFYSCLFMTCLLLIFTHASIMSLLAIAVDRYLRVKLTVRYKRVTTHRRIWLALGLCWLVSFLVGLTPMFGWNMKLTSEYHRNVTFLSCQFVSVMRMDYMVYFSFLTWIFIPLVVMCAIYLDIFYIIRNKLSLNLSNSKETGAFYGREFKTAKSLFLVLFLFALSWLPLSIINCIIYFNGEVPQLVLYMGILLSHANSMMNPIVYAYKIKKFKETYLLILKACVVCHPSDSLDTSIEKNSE
reported.metric: AC50 (µM)
The figure you give is taken to be in µM; do not add the unit.

Prompt: What measured AC50 goes with CC(C)N(CCCCOCC(=O)O)c1cnc(-c2ccccc2)c(-c2ccccc2)n1 ?
Completion: 10.1

Prompt: Another: CCCc1nc2c(C)cc(-c3nc4ccccc4n3C)cc2n1Cc1ccc(-c2ccccc2C(=O)O)cc1
Completion: 18.3

Prompt: Another: C[C@]12C/C(=C/O)C(=O)C[C@@H]1CC[C@@H]1[C@@H]2CC[C@@]2(C)[C@H]1CC[C@]2(C)O [OXYMETHOLONE]
Completion: 8.2

Prompt: Another: O=c1[nH]c2ccccc2n1CCCN1CCN(C(c2ccccc2)c2ccccc2)CC1 [OXATOMIDE]
Completion: 15

* * *

Measurement record for D(3) dopamine receptor (Homo sapiens, UniProt P35462); quantity recorded: AC50.

Observe how each entry below is paired with its result.
C[N+](C)(C)CCOC(=O)CCC(=O)OCC[N+](C)(C)C [SUXAMETHONIUM] : > 30 µM
CC(O)(P(=O)(O)O)P(=O)(O)O [ETIDRONIC ACID] : > 30 µM
COc1ccc2[nH]c([S+]([O-])Cc3ncc(C)c(OC)c3C)nc2c1 (centres undefined) [OMEPRAZOLE] : 20.7 µM

Prompt: What measured AC50 goes with C[C@H]1O[C@@H](O[C@H]2CC[C@@]3(C)[C@H](CC[C@@H]4[C@@H]3C[C@@H](O)[C@]3(C)[C@@H](C5=CC(=O)OC5)CC[C@]43O)C2)C[C@H](O)[C@@H]1O[C@H]1C[C@H](O)[C@H](O[C@H]2C[C@H](O)[C@H](O[C@@H]3O[C@H](CO)[C@@H](O)[C@H](O)[C@H]3O)[C@@H](C)O2)[C@@H](C)O1 [DESLANOSIDE] ?
Completion: > 30 µM

* * *

Measurement record for Adenosine receptor A3 (Homo sapiens, UniProt P0DMS8); quantity recorded: AC50.

Observe how each entry below is paired with its result.
O=C(O)c1ccc(NC(=O)[C@H](Cc2ccc(O)cc2)NC(=O)c2ccccc2)cc1 [BENTIROMIDE] : > 10 µM
O=S1(=O)CCN(CN2CCS(=O)(=O)NC2)CN1 : > 30 µM

Prompt: Record lookup: for Adenosine receptor A3 (Homo sapiens, UniProt P0DMS8), what AC50 belongs to CCOC(=O)c1ccc(C#Cc2ccc3c(c2)C(C)(C)CCS3)nc1 ?
Completion: > 30 µM

Prompt: Another: C[N+]1(C)CCC(=C(c2ccccc2)c2ccccc2)CC1
Completion: > 30 µM

Prompt: Another: CCOc1nc2cccc(C(=O)O)c2n1Cc1ccc(-c2ccccc2-c2nnn[nH]2)cc1
Completion: > 30 µM

* * *

- target.or.system: Endothelin-1 receptor (Homo sapiens); note: assay procedure not described here
- Sequence (P25101 whole entry): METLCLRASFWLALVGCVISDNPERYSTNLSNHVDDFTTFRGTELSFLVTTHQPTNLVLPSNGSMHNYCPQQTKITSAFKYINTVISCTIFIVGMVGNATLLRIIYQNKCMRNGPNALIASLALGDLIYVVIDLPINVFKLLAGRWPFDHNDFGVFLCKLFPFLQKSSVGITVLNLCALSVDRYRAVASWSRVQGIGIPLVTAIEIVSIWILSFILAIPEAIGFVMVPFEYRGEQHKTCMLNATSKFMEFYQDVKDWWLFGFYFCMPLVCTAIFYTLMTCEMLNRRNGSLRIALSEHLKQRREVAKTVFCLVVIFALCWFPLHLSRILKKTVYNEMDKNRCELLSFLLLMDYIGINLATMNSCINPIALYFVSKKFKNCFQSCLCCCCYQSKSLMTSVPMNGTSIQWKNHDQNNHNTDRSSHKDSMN
reported.metric: AC50

Prompt: What measured AC50 goes with O=C(O)Cc1ccccc1Oc1ccc(Cl)cc1Cl ?
Completion: > 30 µM

Prompt: Another: CCN1CC(CCN2CCOCC2)C(c2ccccc2)(c2ccccc2)C1=O (stereo not drawn)
Completion: > 30 µM

Prompt: Another: C[C@@H]1C[C@H]2[C@@H]3C[C@H](F)C4=CC(=O)C=C[C@]4(C)[C@@]3(F)[C@@H](O)C[C@]2(C)[C@@]1(OC(=O)c1ccco1)C(=O)SCF [FLUTICASONE FUROATE]
Completion: > 10 µM

Prompt: Another: O=C1OC(OC(=O)c2cccnc2Nc2cccc(C(F)(F)F)c2)c2ccccc21 (stereo not drawn) [TALNIFLUMATE]
Completion: > 30 µM

Prompt: Another: O=C(/C=C/c1cccc(S(=O)(=O)Nc2ccccc2)c1)NO
Completion: > 10 µM

Prompt: Another: COc1cc(C(=O)NC2CCCNC2)cc(OC)c1OC (stereo not drawn) [TROXIPIDE]
Completion: > 30 µM

Prompt: Another: COc1cc2[nH]c(C)c(CCN3CCN(c4ccccc4)CC3)c2cc1OC
Completion: > 30 µM

Prompt: Another: COc1cc(C(C)=O)ccc1OCCCN1CCC(c2noc3cc(F)ccc23)CC1
Completion: > 30 µM

Where do the numbers come from? From ChEMBL document CHEMBL5291721.
